Reference source: ChEMBL document CHEMBL1134088

target: DNA gyrase (Escherichia coli, UniProt P0AES4+P0AES6); experiment: Inhibitory activity against Escherichia coli DNA gyrase
pIC50: −log10 of the molar value.
Readout: pIC50

INSERT INTO measurements (compound, measured_value) VALUES
  ('CO[C@@H]1[C@@H](OC(=O)c2ccc(C)[nH]2)[C@@H](O)[C@H](Oc2ccc3c(N4CCNCC4)cc(=O)oc3c2C)OC1(C)C', 6.64);

I: CO[C@@H]1[C@@H](OC(=O)c2ccc(C)[nH]2)[C@@H](O)[C@H](Oc2ccc3c(N4CC(C)NC(C)C4)cc(=O)oc3c2C)OC1(C)C (stereo partly drawn)
II: CO[C@@H]1[C@@H](OC(=O)c2ccc(C)[nH]2)[C@@H](O)[C@H](Oc2ccc3c(N4CCN(c5ccccn5)CC4)cc(=O)oc3c2C)OC1(C)C
Recorded pIC50 values differ for I and II ; which one is higher? Answer by quoting the chosen item's label.
I

----------
biological target: DNA gyrase (Escherichia coli, UniProt P0AES4+P0AES6); assay: Inhibitory activity against Escherichia coli DNA gyrase; type: protein-complex assay
pIC50: −log10 of the molar value.
Readout: pIC50

Field: example entries. Status: answers known.
INSERT INTO results (compound, measured_value) VALUES
  ('CO[C@@H]1[C@@H](OC(=O)c2ccc(C)[nH]2)[C@@H](O)[C@H](Oc2ccc3c(N4CC[N+](C)(C)CC4)cc(=O)oc3c2C)OC1(C)C', 6.61),
  ('CCN1CCN(c2cc(=O)oc3c(C)c(O[C@@H]4OC(C)(C)[C@H](OC)[C@@H](OC(=O)c5ccc(C)[nH]5)[C@H]4O)ccc23)CC1', 6.36),
  ('CO[C@@H]1[C@@H](OC(=O)c2ccc(C)[nH]2)[C@@H](O)[C@H](Oc2ccc3c(N4CCN(C)CC4)cc(=O)oc3c2C)OC1(C)C', 6.27),
  ('CO[C@@H]1[C@@H](OC(=O)c2ccc(C)[nH]2)[C@@H](O)[C@H](Oc2ccc3c(N(C)CCN(C)C)cc(=O)oc3c2C)OC1(C)C', 6.20);

A: CO[C@@H]1[C@@H](OC(=O)c2ccc(C)[nH]2)[C@@H](O)[C@H](Oc2ccc3c(N4CCN(C)CC4)c(Cl)c(=O)oc3c2C)OC1(C)C
B: CO[C@@H]1[C@@H](OC(=O)c2ccc(C)[nH]2)[C@@H](O)[C@H](Oc2ccc3c(N4CCC(N(C)C)CC4)cc(=O)oc3c2C)OC1(C)C
C: CO[C@@H]1[C@@H](OC(=O)c2ccc(C)[nH]2)[C@@H](O)[C@H](Oc2ccc3c(N4CCNC(C)C4)cc(=O)oc3c2C)OC1(C)C (some centres not stated)
Ordering: ascending pIC50. # answer = labels listed in requested order
A, B, C
(A: 6.07, B: 6.32, C: 6.65)

----------
test: pKa value was determined; format: physicochemical
Readout: pKa

INSERT INTO results (compound, measured_value) VALUES
  ('CO[C@@H]1[C@@H](OC(=O)c2ccc(C)[nH]2)[C@@H](O)[C@H](Oc2ccc3c(N4CCN(C)CC4)cc(=O)oc3c2C)OC1(C)C', 7.3),
  ('CCN1CCN(c2cc(=O)oc3c(C)c(O[C@@H]4OC(C)(C)[C@H](OC)[C@@H](OC(=O)c5ccc(C)[nH]5)[C@H]4O)ccc23)CC1', 7.5),
  ('CO[C@@H]1[C@@H](OC(=O)c2ccc(C)[nH]2)[C@@H](O)[C@H](Oc2ccc3c(N4CCNC(C)C4)cc(=O)oc3c2C)OC1(C)C (stereo not given in full)', 8.3),
  ('CO[C@@H]1[C@@H](OC(=O)c2ccc(C)[nH]2)[C@@H](O)[C@H](Oc2ccc3c(N4CCC(N(C)C)CC4)cc(=O)oc3c2C)OC1(C)C', 9);

P: CO[C@@H]1[C@@H](OC(=O)c2ccc(C)[nH]2)[C@@H](O)[C@H](Oc2ccc3c(N4CCNCC4)cc(=O)oc3c2C)OC1(C)C
Q: CO[C@@H]1[C@@H](OC(=O)c2ccc(C)[nH]2)[C@@H](O)[C@H](Oc2ccc3c(N4CCN(c5ccccn5)CC4)cc(=O)oc3c2C)OC1(C)C
R: CO[C@@H]1[C@@H](OC(N)=O)[C@@H](O)[C@H](Oc2ccc3c(O)c(NC(=O)c4ccc(O)c(CC=C(C)C)c4)c(=O)oc3c2C)OC1(C)C
Ordering: ascending pKa. # answer = labels listed in requested order
R, Q, P
(R: 3.6, Q: 5.5, P: 8.3)
